molecular target: Histone deacetylase 1 (Homo sapiens, UniProt Q13547); test: Inhibition of HDAC1 (unknown origin)
Sequence (Q13547 whole entry): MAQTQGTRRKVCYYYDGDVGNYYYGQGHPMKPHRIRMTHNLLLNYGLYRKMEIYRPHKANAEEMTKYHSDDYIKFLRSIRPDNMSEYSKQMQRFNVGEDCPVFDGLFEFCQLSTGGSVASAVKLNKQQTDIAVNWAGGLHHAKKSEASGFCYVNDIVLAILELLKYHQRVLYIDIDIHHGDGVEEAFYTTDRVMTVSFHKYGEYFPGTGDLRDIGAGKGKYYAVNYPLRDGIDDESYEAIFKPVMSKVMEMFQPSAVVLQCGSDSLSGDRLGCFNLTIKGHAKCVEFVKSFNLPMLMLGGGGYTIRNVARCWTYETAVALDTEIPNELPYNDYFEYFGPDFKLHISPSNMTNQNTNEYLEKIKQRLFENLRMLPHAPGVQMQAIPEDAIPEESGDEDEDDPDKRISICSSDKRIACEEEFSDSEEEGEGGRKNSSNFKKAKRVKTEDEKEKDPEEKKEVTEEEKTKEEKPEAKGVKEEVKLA
pIC50: −log10 of the molar value.

{"chemicalSmiles": "Cc1onc(-c2ccccc2)c1C(=O)NCCCCCNC(=O)CS", "relationalOperator": "=", "pIC50": 5.24}
{"chemicalSmiles": "O=C(CCCCCNC(=O)NC12CC3CC(CC(C3)C1)C2)NO", "relationalOperator": "=", "pIC50": 6.24}
{"chemicalSmiles": "COC(=O)[C@H](Cc1ccccn1)NC(=O)CCCCCCCC(=O)NO", "relationalOperator": "=", "pIC50": 4.17}
{"chemicalSmiles": "Cc1onc(-c2ccccc2)c1C(=O)NCCCCCNC(=O)[C@@H](C)S", "relationalOperator": "<", "pIC50": 4.52}
{"chemicalSmiles": "COC(=O)[C@@H](Cc1ccccn1)NC(=O)CCCCCCCC(=O)NO", "relationalOperator": "=", "pIC50": 4.08}

* * *

Below is a list of entries, each paired with its recorded IC50 value.
Target: Polyamine deacetylase HDAC10 (Homo sapiens)
Sequence (Q969S8 whole entry): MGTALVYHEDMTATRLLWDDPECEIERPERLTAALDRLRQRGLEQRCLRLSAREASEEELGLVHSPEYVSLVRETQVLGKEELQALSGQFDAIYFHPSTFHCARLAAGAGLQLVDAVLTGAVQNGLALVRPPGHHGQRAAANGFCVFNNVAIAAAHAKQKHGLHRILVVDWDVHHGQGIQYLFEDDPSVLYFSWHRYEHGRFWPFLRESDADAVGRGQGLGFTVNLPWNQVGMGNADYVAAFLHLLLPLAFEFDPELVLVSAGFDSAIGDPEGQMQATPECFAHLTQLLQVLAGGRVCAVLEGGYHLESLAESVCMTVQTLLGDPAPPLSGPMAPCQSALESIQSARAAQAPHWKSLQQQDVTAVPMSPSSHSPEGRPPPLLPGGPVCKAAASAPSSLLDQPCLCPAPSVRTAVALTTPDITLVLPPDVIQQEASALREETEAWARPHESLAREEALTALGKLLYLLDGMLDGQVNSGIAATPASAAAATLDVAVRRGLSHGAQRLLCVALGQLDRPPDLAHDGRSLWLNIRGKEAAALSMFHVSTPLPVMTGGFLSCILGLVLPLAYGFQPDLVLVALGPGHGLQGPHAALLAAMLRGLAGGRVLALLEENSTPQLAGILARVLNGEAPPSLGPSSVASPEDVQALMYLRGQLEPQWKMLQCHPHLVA
Assay: Inhibition of HDAC10 (unknown origin)
measuredEndpoint: IC50 (µM)

{"chemicalSmiles": "O=C(CCCCCCNC(=O)c1cnc(N(c2ccccc2)c2ccccc2)nc1)NO", "targetOfAssay": "Polyamine deacetylase HDAC10 (Homo sapiens)", "measuredEndpoint": "IC50", "relationalOperator": ">", "observedResult": 10}
{"chemicalSmiles": "O=C(CCCCCNC(=O)NC12CC3CC(CC(C3)C1)C2)NO", "targetOfAssay": "Polyamine deacetylase HDAC10 (Homo sapiens)", "measuredEndpoint": "IC50", "relationalOperator": "=", "observedResult": 0.27}

* * *

biological target: Histone deacetylase 2 (Homo sapiens, UniProt Q92769); experiment: Inhibition of His-6-tagged full length HDAC2 (unknown origin) expressed in sf9 cells using carboxyfluorescein (FAM)-labeled acetylated peptide as substrate after 17 hrs by fluorescence-based electrophoretic assay
Sequence (Q92769 whole entry): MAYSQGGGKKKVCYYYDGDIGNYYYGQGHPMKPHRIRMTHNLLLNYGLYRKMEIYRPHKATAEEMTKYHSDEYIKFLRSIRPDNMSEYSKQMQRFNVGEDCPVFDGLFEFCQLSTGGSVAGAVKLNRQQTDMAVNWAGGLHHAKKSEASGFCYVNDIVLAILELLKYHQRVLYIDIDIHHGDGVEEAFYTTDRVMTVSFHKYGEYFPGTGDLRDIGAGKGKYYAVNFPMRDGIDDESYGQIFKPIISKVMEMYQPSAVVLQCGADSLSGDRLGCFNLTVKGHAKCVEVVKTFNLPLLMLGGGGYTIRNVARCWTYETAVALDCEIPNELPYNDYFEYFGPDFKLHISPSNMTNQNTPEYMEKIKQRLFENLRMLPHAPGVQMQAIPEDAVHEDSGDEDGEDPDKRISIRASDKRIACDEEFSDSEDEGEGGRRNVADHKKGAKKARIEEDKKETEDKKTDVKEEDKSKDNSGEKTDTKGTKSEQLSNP
pIC50: −log10 of the molar value.
pIC50 for assorted compounds

{"chemicalSmiles": "CC(C)(C)OC(=O)Nc1cccc(-c2csc(NC(=O)CCCCCCC(=O)NO)n2)c1", "pIC50": 7.68}
{"chemicalSmiles": "O=C(CCCCCCC(=O)Nc1ccc(-c2ccccc2NC(=O)[C@@H]2CCCN2)cc1)NO", "pIC50": 6.71}
